I'd be grateful if you could share measured growth inhibition for these entries.
Experiment: NCI Yeast Anticancer Drug Screen. Data for the wt2 strain (AID 169);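 note: 0% = growth of vehicle-treated yeast cultures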
Settings: S. cerevisiae wt2 strain growth inhibition; at 11.0 µM; stronger effect = higher value
Compounds without any hit were thinned out: in the full panel of roughly 79,000, 15% have a hit.
One number for each entry, in %.

Here are 4 molecules together with their reported answers.
MOLECULE	PROPERTY_MEASURED	VALUE_OBSERVED
CC(C)OC(=O)NNc1c(Cl)cc(Cl)cc1Cl	growth inhibition	2
CC(C)C(c1ccccc1)c1ccccc1	growth inhibition	-1
CCCCCCCCCCCCCCCCCCNc1nc(=O)n(C2CC(OP(=O)(O)OCC3OC(n4cc(F)c(=O)[nH]c4=O)CC3O)C(CO)O2)cc1F (stereo not given)	growth inhibition	-68
O=C1/C(=C/c2ccc(Cl)c(Cl)c2)CNC/C1=C\c1ccc(Cl)c(Cl)c1	growth inhibition	-12

For record O=C(NNc1ccccc1)C(CCCCNS(=O)(=O)Cc1ccccc1)NS(=O)(=O)Cc1ccccc1 (stereo not given) the listed growth inhibition is 22
